System: S. aureus N315 mutant Mt50DscA.5
EXPERIMENT_SUMMARY: Susceptibility (MIC) of Disciformycin A-resistant mutant
Format: cell-based
COND: Staphylococcus aureus
ASSAY_METRIC: MIC (µg/mL)
Write the number in µg/mL without appending the unit.

C/C=C(/C)[C@H]1C/C=C(\C)[C@@H](O[C@H]2O[C@H](CO)[C@@H](O)[C@@H]2O)[C@H](OC(=O)CC(C)C)C(=O)C[C@@H](SC)[C@H](C)C(=O)O1
4
CO[C@H]1/C=C/O[C@@]2(C)Oc3c(C)c(O)c4c(O)c(c(/C=N/N5CCN(C)CC5)c(O)c4c3C2=O)NC(=O)/C(C)=C\C=C\[C@H](C)[C@H](O)[C@@H](C)[C@@H](O)[C@@H](C)[C@H](OC(C)=O)[C@@H]1C [rifampicin, reference compound]
0.001
C/C=C(/C)[C@H]1C/C=C(\C)[C@@H](O[C@H]2O[C@H](CO)[C@@H](O)[C@@H]2O)[C@H](OC(=O)CC(C)C)C(=O)C[C@@H](O)[C@H](C)C(=O)O1
64

Kindly note the recorded MIC for C/C=C(/C)[C@H]1C/C=C(\C)[C@@H](O[C@H]2O[C@H](CO)[C@@H](O)[C@@H]2O)[C@H](OC(=O)CC(C)C)C(=O)C[C@@H](OC)[C@H](C)C(=O)O1 , which is 32

* * *

Test system: S. aureus N315 mutant Mt50DscA.1
EXPERIMENT_SUMMARY: Susceptibility (MIC) of Disciformycin A-resistant mutant
Assay type: cell-based
COND: Staphylococcus aureus
ASSAY_METRIC: MIC

Worked cases, MIC given:
C/C=C(/C)[C@H]1C/C=C(\C)[C@@H](O[C@H]2O[C@H](CO)[C@@H](O)[C@@H]2O)[C@H](O)C(=O)CC[C@H](C)C(=O)O1
> 64 µg/mL
C/C=C(/C)[C@H]1C/C=C(\C)[C@@H](O[C@H]2O[C@H](CO)[C@@H](O)[C@@H]2O)[C@H](OC(=O)CC(C)C)C(=O)C[C@@H](SC)[C@H](C)C(=O)O1
32 µg/mL
CO[C@H]1/C=C/O[C@@]2(C)Oc3c(C)c(O)c4c(O)c(c(/C=N/N5CCN(C)CC5)c(O)c4c3C2=O)NC(=O)/C(C)=C\C=C\[C@H](C)[C@H](O)[C@@H](C)[C@@H](O)[C@@H](C)[C@H](OC(C)=O)[C@@H]1C [rifampicin, reference compound]
0.003 µg/mL

Next item in the queue.
# MIC measured on S. aureus N315 mutant Mt50DscA.1 for item C/C=C(/C)[C@H]1C/C=C(\C)[C@@H](O[C@H]2O[C@H](CO)[C@@H](O)[C@@H]2O)[C@H](OC(=O)CC(C)C)C(=O)C[C@@H](O)[C@H](C)C(=O)O1 = > 64 µg/mL

* * *

# MIC per entry
Tested on: S. aureus N315 mutant Mt50DscA.11
EXPERIMENT_SUMMARY: Susceptibility (MIC) of Disciformycin A-resistant mutant
Type: cell-based
COND: Staphylococcus aureus

C/C=C(/C)[C@H]1C/C=C(\C)[C@@H](O[C@H]2O[C@H](CO)[C@@H](O)[C@@H]2O)[C@H](OC(=O)CC(C)C)C(=O)C[C@@H](O)[C@H](C)C(=O)O1
> 64 µg/mL
C/C=C(/C)[C@H]1C/C=C(\C)[C@@H](O[C@H]2O[C@H](CO)[C@@H](O)[C@@H]2O)[C@H](OC(=O)CC(C)C)C(=O)C/C=C(/C)C(=O)O1
> 64 µg/mL

As a next step, examine the molecule that follows.
Record summary for C/C=C(/C)[C@H]1C/C=C(\C)[C@@H](O[C@H]2O[C@H](CO)[C@@H](O)[C@@H]2O)[C@H](O)C(=O)CC[C@H](C)C(=O)O1 : reported MIC = > 64 µg/mL
